Just for reference, paper PMC8657435 is where these values come from.

Exercise: for every item that follows, state its recorded GI50.
Test system: MCF-7
assay.name: In vitro cytotoxicity / antiproliferative activity, resazurin viability assay, 72 h
Type: cell-based, human
assay.context: Homo sapiens, MCF7; single purine, 72 h; read-out: MCF-7 GI50, Purine

Quick request: GI50 for each listed item, please.
1. CC(C)n1cnc2c(Nc3cccc(CC45CC6CC(CC(C6)C4)C5)c3)nc(NCCCO)nc21 [Compound 4c]
2. CC(C)n1cnc2c(Nc3ccc(CC45CC6CC(CC(C6)C4)C5)cc3)nc(NCCCO)nc21 [Compound 4f]

1: > 6.25 µM; 2: > 12.5 µM

// for each compound below, give its GI50
1. CC(C)n1cnc2c(Nc3cccc(CCC45CC6CC(CC(C6)C4)C5)c3)nc(NCCCO)nc21 [Compound 4h]
2. CC(C)n1cnc2c(Nc3cccc(C(=O)C45CC6CC(CC(C6)C4)C5)c3)nc(NCCCO)nc21 [Compound 4a]

["> 12.5 µM", "> 6.25 µM"]

Provide reported GI50 for each item, in the same order as listed.
1. CC(C)n1cnc2c(Nc3ccc(C(=O)C45CC6CC(CC(C6)C4)C5)cc3)nc(NCCCO)nc21 [Compound 4d]
2. CC(C)n1cnc2c(NCc3ccc(C(=O)CC45CC6CC(CC(C6)C4)C5)cc3)nc(NCCCO)nc21 [Compound 4j]
3. CC(C)n1cnc2c(Nc3ccc(C(O)C45CC6CC(CC(C6)C4)C5)cc3)nc(NCCCO)nc21 (stereo not shown) [Compound 4e]
4. CC(C)n1cnc2c(Nc3cccc(C(O)C45CC6CC(CC(C6)C4)C5)c3)nc(NCCCO)nc21 (stereo not shown) [Compound 4b]
5. CC(C)n1cnc2c(Nc3cccc(C(O)CC45CC6CC(CC(C6)C4)C5)c3)nc(NCCCO)nc21 (stereo not shown) [Compound 4g]
6. CC(C)n1cnc2c(NCc3cccc(C(=O)CC45CC6CC(CC(C6)C4)C5)c3)nc(NCCCO)nc21 [Compound 4i]

1: 5.72 µM; 2: > 6.25 µM; 3: 8.1 µM; 4: > 6.25 µM; 5: > 6.25 µM; 6: > 6.25 µM

====

observed.property: melting point

Worked set:
molecule	melting point
CC(C)n1cnc2c(NCc3cccc(C(=O)CC45CC6CC(CC(C6)C4)C5)c3)nc(NCCCO)nc21	64 to 69 °C
CC(C)n1cnc2c(Nc3cccc(CCC45CC6CC(CC(C6)C4)C5)c3)nc(NCCCO)nc21	72 to 78 °C
CC(C)n1cnc2c(Nc3cccc(C(O)C45CC6CC(CC(C6)C4)C5)c3)nc(NCCCO)nc21 (centres unmarked)	88 to 93 °C
CC(C)n1cnc2c(Nc3cccc(CC45CC6CC(CC(C6)C4)C5)c3)nc(NCCCO)nc21	88 to 93 °C

# input for lookup
For the molecule shown here, CC(C)n1cnc2c(Nc3cccc(C(O)CC45CC6CC(CC(C6)C4)C5)c3)nc(NCCCO)nc21 (centres unmarked) , give the reported melting point. 87 to 91 °C

====

experimental.target: CDK2/cyclin E (Homo sapiens, UniProt P24941)
assay.name: CDK2/cyclin E kinase inhibition assay ([γ-33P]ATP, peptide substrate)
Type: biochemical
assay.context: single purine; read-out: CDK2/cyclin E IC50
observed.property: IC50 (nM)
One number for each entry, in nM.

Record CC(C)n1cnc2c(Nc3ccc(C(=O)C45CC6CC(CC(C6)C4)C5)cc3)nc(NCCCO)nc21 [Compound 4d] : what is its IC50 with CDK2/cyclin E (Homo sapiens, UniProt P24941)? 580
